Test system: K562
Assay Method Text: NCI tumour cell line growth inhibition, 48 h
Calls of active or inactive are those of the source. No stated cut-off is given here; in the data, active = GI50 up to about 1.1 µM and inactive = higher.

Molecule	Study System	GI50
COc1cccc(C2C(C(=O)O)=C(CO)Oc3cc4c(cc32)OCO4)c1OC (stereo not drawn)	K562	> 100 µM (inactive)
CC(=O)OCC1OC(n2c(-c3cccs3)c3c(c(C#N)c2=S)-c2ccccc2CC3)C(OC(C)=O)C(OC(C)=O)C1OC(C)=O (stereo not drawn)	K562	4.37 µM (inactive)
O=[N+]([O-])c1ccccc1C1SCc2nc3ccccc3n21 (stereo not drawn)	K562	45.5 µM (inactive)
C[N+](C)=C/C=C(\Cl)c1ccc2ccccc2c1	K562	5.04 µM (inactive)
Cc1cc(NS(=O)(=O)c2ccc(Nc3c4ccccc4nc4c(C(=O)Nc5ccc(S(=O)(=O)N=C(N)N)cc5)ccc(Cl)c34)cc2)no1	K562	22.1 µM (inactive)
OC(c1ccccc1)(c1cccnc1)C(O)(c1ccccc1)c1cccnc1 (stereo not drawn)	K562	> 10 µM (inactive)
CC1CCC2N(C1)CC1C3(O)CC45OC6(O)C(O)CCC4(C)C6CCC5C3(O)CC(O)C1(O)C2(C)O (stereo not drawn)	K562	> 100 µM (inactive)
Cc1cc2c(cc1-c1cc3c(cc1C)C(C(C)C)=C(O)C(=O)/C3=C\Nc1c(C)n(C)n(-c3ccccc3)c1=O)/C(=C/Nc1c(C)n(C)n(-c3ccccc3)c1=O)C(=O)C(O)=C2C(C)C	K562	> 100 µM (inactive)

----------
Tested on: UACC-257
Assay Method Text: NCI tumour cell line growth inhibition, 48 h
Activity calls are given as the source filed them. Cut-off read from the data, not from the text of the source: active = GI50 up to about 1.1 µM and inactive = higher.
Measured GI50 by item

Molecule	GI50
Oc1ccc(/C=N/NC(=S)Nc2cccnc2)nc1	13.7 µM (inactive)
C=C1C(O)C23CCC4C(C(=O)O)(C(=O)O)CC(OC5OC(CO)C(O)C(OC(=O)CCc6ccccc6)C5NC(=O)CC(C)C)CC4(C)C2CCC1(O)C3 (stereo not drawn)	> 100 µM (inactive)
CC(C)=NNc1snnc1C(N)=O	> 100 µM (inactive)

----------
Measured GI50 by item
System: SW-620
Assay Method Text: NCI tumour cell line growth inhibition, 48 h
Calls of active or inactive are those of the source. Cut-off read from the data, not from the text of the source: active = GI50 up to about 1.1 µM and inactive = higher.
Measurement Kind: GI50

Compound	Study System	Measurement Kind	Measured Value
OC(c1ccccc1)(c1cccnc1)C(O)(c1ccccc1)c1cccnc1 (stereo not given)	SW-620	GI50	> 100 µM (inactive)
O=S(=O)(c1cccc(N=C=S)c1)c1cccc(N=C=S)c1	SW-620	GI50	> 10 µM (inactive)
COc1cccc(/C=C2\N=C(Cl)OC2=O)c1O	SW-620	GI50	> 66.4 µM (inactive)
COc1ccc(-c2c(C(C)=O)c(-c3ccccc3)n(C3OC(CO)C(O)C(O)C3O)c(=S)c2C#N)cc1 (stereo not given)	SW-620	GI50	> 100 µM (inactive)
CC(C)c1cccc(C(C)C)c1/N=C(/N)C#N	SW-620	GI50	22.1 µM (inactive)

----------
Test system: SNB-19
Assay Method Text: NCI tumour cell line growth inhibition, 48 h
The source made the active and inactive calls. Rule as the data show it: active = GI50 up to about 1.1 µM and inactive = higher.

Molecule	GI50
CCOc1c2c(cc3c1C(=O)c1c(OC)cccc1C3=O)C=C(OC)CC2	> 25 µM (inactive)
CC1(c2ccccc2)CC12C(=O)NC(=O)NC2=O (stereo unspecified)	> 100 µM (inactive)
COC(=O)c1c(C)oc2ccc(OC(C)=O)cc12	> 100 µM (inactive)
CSCCCNC(=O)c1csc(-c2csc(CCNC(=O)CNC(=O)OC(C)(C)C)n2)n1	> 100 µM (inactive)
C=CCC(O[Si](C)(C)C(C)(C)C)c1cc(O[Si](C)(C)C(C)(C)C)ccc1OC (stereo unspecified)	> 62.2 µM (inactive)
O=C1OC(C2(O)OC(=O)c3ccccc32)c2ccccc21 (stereo unspecified)	> 100 µM (inactive)
CC(C)NC(=O)CN1CCN(C2=C(Cl)C(=O)c3c(O)ccc(O)c3C2=O)CC1	13.6 µM (inactive)
COc1cc(/C=C2\N=C(c3ccccc3)N(c3ccc(C(=O)c4ccccc4)cc3N3C(=O)/C(=C/c4cc(OC)c(OC)c(OC)c4)N=C3c3ccccc3)C2=O)cc(OC)c1OC	25.6 µM (inactive)
O=C1/C(=C/c2ccc3c(c2)OCO3)SC2C=Nc3ccccc3N12 (stereo unspecified)	> 100 µM (inactive)
CC(C)(CN1CCCCC1)C(=O)CC(SCCS(=O)(=O)O)c1ccccc1 (stereo unspecified)	17.5 µM (inactive)
Cc1cc(C)n2c(nc3ccccc32)c1C#N	> 100 µM (inactive)
Cc1ccc(S(=O)(=O)N2CCNCCN(S(=O)(=O)c3ccc(C)cc3)CCNCC2)cc1	31 µM (inactive)
COc1ccc(C[C@@H](C(=O)O[C@H](C)[C@H](NC(=O)[C@@H](CC(C)C)N(C)C(=O)C2CCCN2C(=O)[C@H](C)O)C(=O)N2CCCCNC(=O)[C@@H](C)C(=O)[C@H](C(C)C)OC(=O)C[C@H](O)[C@H]2CC(C)C)N(C)C(C)=O)cc1 (stereo partly specified)	10.6 µM (inactive)
COc1cc2ccc1OCc1cccc(n1)COc1ccc(cc1OC)/C=N\CCNCC/N=C\2	> 100 µM (inactive)
N#Cc1nc(NC(=O)c2ccccc2)sc1N	> 10 µM (inactive)
CC(C)(C)[Si](C)(C)OCC1OC(n2cnc3c(N)ncnc32)CC1OS(C)(=O)=O (stereo unspecified)	> 100 µM (inactive)
Cc1cccc(C(O)c2ccncc2)c1O (stereo unspecified)	> 100 µM (inactive)
CC(=O)OCCc1cc2ccccc2oc1=O	> 100 µM (inactive)
C[Si](C)(C)OC1c2[nH]c3ccccc3c2CN2C(=O)CCC12 (stereo unspecified)	> 100 µM (inactive)
O=S(=O)(c1cccc(N=C=S)c1)c1cccc(N=C=S)c1	64.1 µM (inactive)
CCOc1ccc2nc(NC(=O)C(=O)C3C(=O)C(CC4C(=O)c5ccccc5C4=O)C(=O)CC3(C)C)sc2c1 (stereo unspecified)	> 100 µM (inactive)

The reported numbers originate from ChEMBL document CHEMBL1201862.
